Target: T1, Gadd45β/MKK7 complex (biotin-hGadd45β with coated GST-MKK7, ELISA format) (human, UniProt O75293 1-160; O14733 1-419, biotinylated (sites not given))
T1 construct: not shown: glutathione S-transferase (GST) fusion partner
T1 sequence (looked up) 1: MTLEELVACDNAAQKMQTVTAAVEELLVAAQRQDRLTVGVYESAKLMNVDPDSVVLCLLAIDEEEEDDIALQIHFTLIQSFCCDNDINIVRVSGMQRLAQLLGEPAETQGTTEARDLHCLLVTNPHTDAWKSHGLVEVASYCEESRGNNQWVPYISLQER
T1 sequence (looked up) 2: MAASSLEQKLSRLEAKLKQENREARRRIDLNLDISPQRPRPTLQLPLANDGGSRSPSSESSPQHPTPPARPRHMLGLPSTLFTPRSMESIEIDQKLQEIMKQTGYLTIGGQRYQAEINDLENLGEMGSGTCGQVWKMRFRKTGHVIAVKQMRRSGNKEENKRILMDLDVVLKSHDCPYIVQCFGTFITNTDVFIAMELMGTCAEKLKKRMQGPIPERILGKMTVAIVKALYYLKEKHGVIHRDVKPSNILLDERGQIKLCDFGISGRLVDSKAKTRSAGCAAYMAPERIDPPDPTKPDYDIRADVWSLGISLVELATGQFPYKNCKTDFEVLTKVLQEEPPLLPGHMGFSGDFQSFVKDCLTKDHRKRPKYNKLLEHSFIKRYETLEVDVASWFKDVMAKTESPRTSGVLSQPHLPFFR
Experiment: competition ELISA; coated GST-MKK7, biotin-hGadd45β; single dose
In plain terms, low % Inhibition of Gadd45β-MKK7 binding, meaning strictly below 60%, gives met, and everything else gives not met.

Quick check: does Ac-WEHF-NH2 [Ac-WEHF-NH2] have % Inhibition of Gadd45β-MKK7 binding under 60%?
met

Quick check: does Ac-YDKF-NH2 [Ac-YDKF-NH2] have % Inhibition of Gadd45β-MKK7 binding under 60%?
met

Quick check: does Ac-WEKF-NH2 [Ac-WEKF-NH2] have % Inhibition of Gadd45β-MKK7 binding under 60%?
not met

Quick check: does Ac-YERF-NH2 (also called Ac-LTP2; LTP2) [Ac-YERF-NH2] have % Inhibition of Gadd45β-MKK7 binding under 60%?
not met

Quick check: does Ac-WDRF-NH2 [Ac-WDRF-NH2] have % Inhibition of Gadd45β-MKK7 binding under 60%?
met

Quick check: does Ac-YDKW-NH2 [Ac-YDKW-NH2] have % Inhibition of Gadd45β-MKK7 binding under 60%?
met

Quick check: does Ac-YEHF-NH2 [Ac-YEHF-NH2] have % Inhibition of Gadd45β-MKK7 binding under 60%?
met

Quick check: does Ac-YEKW-NH2 [Ac-YEKW-NH2] have % Inhibition of Gadd45β-MKK7 binding under 60%?
met

Quick check: does Ac-WEKW-NH2 [Ac-WEKW-NH2] have % Inhibition of Gadd45β-MKK7 binding under 60%?
not met

Quick check: does Ac-YDHF-NH2 (also called Ac-LTP1; LTP1) [Ac-YDHF-NH2] have % Inhibition of Gadd45β-MKK7 binding under 60%?
not met

Quick check: does Ac-WERF-NH2 [Ac-WERF-NH2] have % Inhibition of Gadd45β-MKK7 binding under 60%?
met

Quick check: does Ac-WDKW-NH2 [Ac-WDKW-NH2] have % Inhibition of Gadd45β-MKK7 binding under 60%?
not met

Quick check: does Ac-YEHW-NH2 [Ac-YEHW-NH2] have % Inhibition of Gadd45β-MKK7 binding under 60%?
not met

Quick check: does Ac-WDHF-NH2 [Ac-WDHF-NH2] have % Inhibition of Gadd45β-MKK7 binding under 60%?
met

Quick check: does Ac-WERW-NH2 [Ac-WERW-NH2] have % Inhibition of Gadd45β-MKK7 binding under 60%?
not met

Quick check: does Ac-WEHW-NH2 [Ac-WEHW-NH2] have % Inhibition of Gadd45β-MKK7 binding under 60%?
not met

Quick check: does Ac-WDHW-NH2 [Ac-WDHW-NH2] have % Inhibition of Gadd45β-MKK7 binding under 60%?
met

Quick check: does Ac-YEKF-NH2 [Ac-YEKF-NH2] have % Inhibition of Gadd45β-MKK7 binding under 60%?
not met

Quick check: does Ac-WDRW-NH2 [Ac-WDRW-NH2] have % Inhibition of Gadd45β-MKK7 binding under 60%?
not met

Quick check: does Ac-YDRF-NH2 [Ac-YDRF-NH2] have % Inhibition of Gadd45β-MKK7 binding under 60%?
met

Quick check: does Ac-YDHW-NH2 [Ac-YDHW-NH2] have % Inhibition of Gadd45β-MKK7 binding under 60%?
met

Quick check: does Ac-YDRW-NH2 [Ac-YDRW-NH2] have % Inhibition of Gadd45β-MKK7 binding under 60%?
met

Quick check: does Ac-WDKF-NH2 [Ac-WDKF-NH2] have % Inhibition of Gadd45β-MKK7 binding under 60%?
met
